Tested on: cotton pellet granuloma
assay-explanation: Anti-granuloma activity (cotton pellet)
Assay type: in vivo, rat
condition-info: Rattus norvegicus, po, 192 h, 7 days, read-out: I.R. against cotton pellet edema
Threshold rule: inhibition in vivo at 1000 mg/kg/day greater than or equal to 9% is true; below that, false.

Task: Please tell me: is the molecule O=C(Oc1ccccc1)c1ccc(NC2OC[C@@H](O)[C@H](O)[C@H]2O)cc1 (stereo partly drawn) [Compound 8, phenyl p-aminobenzoate-N-D-xyloside] at or over 9% in terms of inhibition in vivo at 1000 mg/kg/day?
Result: false

* * *

Test system: cotton pellet granuloma
assay-explanation: Anti-granuloma activity (cotton pellet)
Format: in vivo, rat
condition-info: Rattus norvegicus, po, 192 h, 7 days, read-out: I.R. against cotton pellet edema
Listed here: items and their measured inhibition in vivo at 1000 mg/kg/day.
Quick reminder: number only, in %, skip the unit.

Sample answers from the record:
O=C(OCc1ccccc1)c1ccc(NC2(CO)OC[C@@H](O)[C@@H](O)[C@@H]2O)cc1 (stereo partly drawn) [Compound 15, benzyl p-aminobenzoate-N-D-fructoside]
9
O=C(OCc1ccccc1)c1ccc(NC2C[C@H](O)[C@H](O)CO2)cc1 (stereo partly drawn) [Compound 13, benzyl p-aminobenzoate-N-D-deoxyriboside]
4.2
O=C(OCC1CCCCC1)c1ccccc1NC1O[C@H](CO)[C@@H](O[C@@H]2O[C@H](CO)[C@H](O)[C@H](O)[C@H]2O)[C@H](O)[C@H]1O (stereo partly shown)
7.2

Shifting focus to the compound that follows.
Reported inhibition in vivo at 1000 mg/kg/day for O=C(OC1CCCCC1)c1ccc(NC2OC[C@@H](O)[C@H](O)[C@H]2O)cc1 (stereo partly drawn) [Compound 18, cyclohexyl p-aminobenzoate-N-D-xyloside] was 12.2

These data points were gathered from patent US4372948A.
